System: Escherichia coli TOP10
Test: shrunken log2 fold change of peptide-encoding DNA abundance (4.5 h post-induction vs induction); higher = less antimicrobial activity (less host growth inhibition)
Conditions: time post-induction: 4.5 h; library: site-saturation at positions 5, 18, 19, 20
sequences and their reported shrunken log2 fold change
// keep it numeric: no unit symbol after the value

1) RRIRRRPPRLPRPRPRPQLEPRP ... 0.059
2) RRIRPRPPRLPRPRPRPARWPRP ... 0.44
3) RRIRVRPPRLPRPRPRPFNDPRP ... -0.416

Okay, now this sequence:
Request: Under Escherichia coli TOP10, report shrunken log2 fold change for `RRIRCRPPRLPRPRPRPLPEPRP`
Result: 0.397

---

Reported shrunken log2 fold change is given for each of the following sequences.
Test system: Escherichia coli TOP10
Assay: shrunken log2 fold change of peptide-encoding DNA abundance (4.5 h post-induction vs induction); higher = less antimicrobial activity (less host growth inhibition)
Conditions: time post-induction: 4.5 h; library: site-saturation at positions 5, 18, 19, 20
// response body must contain only the number

The cases that follow already have their shrunken log2 fold change on record.
1) RRIRRRPPRLPRPRPRPAWMPRP ... 0.24
2) RRIRARPPRLPRPRPRPYNQPRP ... -0.306
3) RRIRDRPPRLPRPRPRPICFPRP ... 0.227
4) RRIRMRPPRLPRPRPRPEFKPRP ... 0.335
5) RRIRCRPPRLPRPRPRPAHSPRP ... -0.129

Request: Identify shrunken log2 fold change associated with the sequence `RRIRNRPPRLPRPRPRPMQSPRP`
Result: -0.0939

Request: Find the measured shrunken log2 fold change of `RRIRCRPPRLPRPRPRPKREPRP` and report it.
Result: 0.636

Request: Give a short answer stating reported shrunken log2 fold change for `RRIRMRPPRLPRPRPRPERSPRP` .
Result: 3.22

---

Tested on: Escherichia coli TOP10
Assay: shrunken log2 fold change of peptide-encoding DNA abundance (4.5 h post-induction vs induction); higher = less antimicrobial activity (less host growth inhibition)
Conditions: time post-induction: 4.5 h; library: site-saturation at positions 5, 18, 19, 20
RECORDED METRIC: shrunken log2 fold change
Quick one: just the number, no unit, thanks!

1. RRIRPRPPRLPRPRPRPTNRPRP ... -0.104
2. RRIRSRPPRLPRPRPRPIKLPRP ... 0.0994
3. RRIRIRPPRLPRPRPRPVMMPRP ... -0.31
4. RRIRCRPPRLPRPRPRPLPYPRP ... -0.804
5. RRIRRRPPRLPRPRPRPYSNPRP ... -0.414
6. RRIRRRPPRLPRPRPRPIWYPRP ... 0.00744
7. RRIRARPPRLPRPRPRPWACPRP ... 0.0376
8. RRIRARPPRLPRPRPRPKEVPRP ... -0.0076

Request: Look up and report measured shrunken log2 fold change (Escherichia coli TOP10) for the following sequence: `RRIRPRPPRLPRPRPRPIAQPRP`
Result: 0.487

Request: Specify shrunken log2 fold change for `RRIRRRPPRLPRPRPRPPLFPRP` , system Escherichia coli TOP10.
Result: 0.464

Request: Specify shrunken log2 fold change for `RRIRHRPPRLPRPRPRPFMPPRP` , system Escherichia coli TOP10.
Result: -0.146

Request: Answer with shrunken log2 fold change of `RRIRDRPPRLPRPRPRPFCGPRP` measured for Escherichia coli TOP10.
Result: 0.258

Request: // fetch shrunken log2 fold change; item: `RRIRMRPPRLPRPRPRPPDCPRP` ; system: Escherichia coli TOP10
Result: 0.865

Request: // output shrunken log2 fold change; input `RRIRHRPPRLPRPRPRPRSNPRP` ; system Escherichia coli TOP10;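 also: peptides expressed intracellularly from a pBAD plasmid library in pooled LB shake-flask culture, induced with 0.3% L-arabinose, DNA abundance read by NGS, three biological replicates, DESeq2 with apeglm shrinkage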
Result: -0.253

Request: Please look at `RRIRERPPRLPRPRPRPQMKPRP` and tell me its recorded shrunken log2 fold change on Escherichia coli TOP10.
Result: -0.568

Request: Provide Escherichia coli TOP10 shrunken log2 fold change reading for `RRIRVRPPRLPRPRPRPHLTPRP` .
Result: -0.333

Request: Output reported shrunken log2 fold change of the sequence `RRIRPRPPRLPRPRPRPMSLPRP` on Escherichia coli TOP10.
Result: -0.769
